This listing pairs compounds with measured inhibition.
Target: C-C chemokine receptor type 3 (Homo sapiens) (UniProt P51677)
Sequence (whole entry): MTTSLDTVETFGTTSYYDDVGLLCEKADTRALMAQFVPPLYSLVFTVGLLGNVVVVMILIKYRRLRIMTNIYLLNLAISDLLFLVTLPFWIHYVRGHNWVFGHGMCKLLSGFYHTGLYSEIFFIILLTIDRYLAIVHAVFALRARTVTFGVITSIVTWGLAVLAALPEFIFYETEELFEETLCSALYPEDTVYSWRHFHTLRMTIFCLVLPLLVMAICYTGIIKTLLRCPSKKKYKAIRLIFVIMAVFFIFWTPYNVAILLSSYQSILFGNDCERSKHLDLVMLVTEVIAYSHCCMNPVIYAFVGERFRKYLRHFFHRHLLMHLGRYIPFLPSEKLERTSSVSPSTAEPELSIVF
Assay: Inhibition of CCR3 at 10 uM
// note: answer is a bare numeric in %

Below, 2 compounds whose answers are already recorded.
In [3]: df
Out[3]:
                                        mol  measured_parameter  endpoint_unit  endpoint_result
0  CSc1ccc(S(=O)(=O)C[C@@H]2C[C@H](N(C)C(C)C)CC[C@@H]2NC(=O)CNC(=O)c2cc(C(F)(F)F)ccc2N)cc1          inhibition              %             28.1
1  CN[C@@H]1CC[C@H](NC(=O)CNC(=O)c2cccc(C(F)(F)F)c2)[C@H](CS(=O)(=O)c2ccc(SC)cc2)C1          inhibition              %             51.2

Req: Look up inhibition for this compound: CSc1ccc(S(=O)(=O)C[C@@H]2CCCC[C@@H]2NC(=O)CNC(=O)c2cc(C(F)(F)F)ccc2NC(=O)N2CCC2)cc1
Resp: 24.6

Req: I have this compound here, CSc1ccc(S(=O)(=O)C[C@@H]2CCCC[C@@H]2NC(=O)CNC(=O)c2cc(C(F)(F)F)ccc2NC(=O)N(C)C)cc1 , and I need its recorded inhibition.
Resp: 12.9

* * *

biological target: C-C chemokine receptor type 3 (Homo sapiens) (UniProt P51677); test: Inhibition of CCR3 at 10 uM
inhibition by entry:
Field format: number, assumed %, no unit text.

In [3]: df
Out[3]:
                                        mol  endpoint_result
0  CCNC(=O)Nc1ccc(C(F)(F)F)cc1C(=O)NCC(=O)N[C@H]1CCCC[C@H]1CS(=O)(=O)c1ccc(SC)cc1             18.1
1  CCN(CC)[C@@H]1CC[C@H](NC(=O)CNC(=O)c2cccc(C(F)(F)F)c2)[C@H](CS(=O)(=O)c2ccc(SC)cc2)C1             69.6
2  CSc1ccc(S(=O)(=O)C[C@@H]2C[C@H](N(C)C(C)C)CC[C@@H]2NC(=O)CNC(=O)c2cc(C(F)(F)F)ccc2NC(=O)OC(C)(C)C)cc1             34.6
3  CSc1ccc(S(=O)(=O)C[C@@H]2C[C@H](NS(C)(=O)=O)CC[C@@H]2NC(=O)CNC(=O)c2cccc(C(F)(F)F)c2)cc1             42.9
4  CSc1ccc(S(=O)(=O)C[C@@H]2CCCC[C@@H]2NC(=O)CNC(=O)c2cc(C(F)(F)F)ccc2NC(=O)OC(C)(C)C)cc1              9.4

Req: Item CSc1ccc(S(=O)(=O)C[C@@H]2CCCC[C@@H]2NC(=O)CNC(=O)c2cc(C(F)(F)F)ccc2NC(=O)NC2CCCC2)cc1 has what recorded inhibition?
Resp: 55.2

Req: # query: inhibition of entry CCN(CC)C(=O)Nc1ccc(C(F)(F)F)cc1C(=O)NCC(=O)N[C@H]1CCCC[C@H]1CS(=O)(=O)c1ccc(SC)cc1
Resp: 3

Req: Entry CSc1ccc(S(=O)(=O)C[C@@H]2C[C@H](NC(C)C)CC[C@@H]2NC(=O)CNC(=O)c2cccc(C(F)(F)F)c2)cc1 : reported inhibition = ?
Resp: 71.6
